Experiment: chemical genetic growth profiling, strain panel (AID 1159580);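 also: tested at 20 µM; growth read once vehicle control cultures reached saturation at 30 °C; 1 = growth at the plate median or of vehicle wells; lower values mean less growth of the strain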
Details: S. cerevisiae deletion strains, growth OD, locus YDL017W, strain CDC7, hits give low values
Among all 5,500 compounds or so, about 2,000 (36%) were called active. Another 18% or so got no clear call; they are omitted. This is one part of the list.
The entries below are paired with their reported normalized growth.
When you answer, write just the number.

- Clc1ccc(N/N=C\c2sccc2Oc2ccccc2)cc1: 0.974

Form field: reported normalized growth of CN1c2ccccc2C(C)(C)C12C=Cc1cc(O)ccc1O2 (stereo not given)
0.974

Entry under review: "O=C(c1cc2c(s1)-c1ccccc1CC2)N1CCN(Cc2ccccc2)CC1" . Reported normalized growth?
1

Which measured normalized growth value corresponds to "CS/C(Nc1cccc(C(F)(F)F)c1)=C(/C#N)S(=O)(=O)c1ccc(Cl)cc1" ?
0.948

Form field: reported normalized growth of "O=C(Nc1cc2c(s1)-c1cc(Cl)ccc1SC2)Oc1ccccc1"
1.01

What does the record list as normalized growth for "O=C(NNC(=S)Nc1ccc(Cl)cc1)c1ncc(C(F)(F)F)cc1Cl" ?
0.989

// lookup normalized growth for COc1ccc(C2CC(c3ccc(C)cc3C)=NN2C(C)=O)cc1 (stereo not given)
0.992

I'd like to know its normalized growth. The molecule in question is "Cc1ccc(OCc2n[nH]c(=S)n2Cc2ccccc2)c2c1CCC2"
0.987

Can you share its normalized growth? I mean this molecule: "Cc1ccc2nc(-c3ccc([N+](=O)[O-])o3)oc(=O)c2c1"
0.259
